target: C-Raf kinase (SEQ. ID NO: 3) (Homo sapiens (Human), UniProt P04049, Y340D/Y341D); assay: Biochemical Assay for C-Raf (1); conditions: Table J, assay version (1); read-out: CRAF (1) IC50
Sequence (P04049 307-648 Y340D/Y341D): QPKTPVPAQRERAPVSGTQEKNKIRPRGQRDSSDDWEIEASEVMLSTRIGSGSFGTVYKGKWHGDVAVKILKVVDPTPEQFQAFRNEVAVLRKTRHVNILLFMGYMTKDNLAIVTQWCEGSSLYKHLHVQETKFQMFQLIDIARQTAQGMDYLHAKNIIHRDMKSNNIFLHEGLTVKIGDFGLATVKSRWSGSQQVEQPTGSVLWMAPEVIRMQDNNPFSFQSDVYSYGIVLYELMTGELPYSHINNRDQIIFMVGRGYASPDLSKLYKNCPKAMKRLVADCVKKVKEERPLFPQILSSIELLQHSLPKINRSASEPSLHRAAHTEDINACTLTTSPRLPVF
pIC50: −log10 of the molar value.
The entries below are paired with their reported pIC50.

Consider the worked cases shown below.
COC(=O)Nc1cc(-c2cccc(-c3cc(NC(=O)c4ccnc(C5CC5)c4)cnc3C)c2)ccn1 [Example 288]	≥ 7.00
Cc1ccc(NC(=O)c2ccnc(C(F)(F)F)c2)cc1-c1ccnc(-c2ccnc(NC(=O)CN(C)C)c2)c1 [Example 17]	≥ 7.00
COC(=O)Nc1cc(-c2cc(-c3cc(NC(=O)c4ccnc(C(C)(C)F)c4)c(F)cc3C)ccn2)ccn1 [Example 302]	≥ 7.00
COCCNc1cc(-c2nccc(-c3cc(NC(=O)c4ccnc(C(C)(C)C#N)c4)ccc3C)n2)ccn1 [Example 221]	≥ 7.00
Cc1ccc(NC(=O)c2ccnc(C(C)(C)C#N)c2)cc1-c1cncc(-c2ccnc(NC(=O)CC#N)c2)n1 [Example 154]	≥ 7.00
CNC(=O)c1cc(-c2cnnc(-c3cc(NC(=O)c4cn(C(C)(C)C)nn4)ccc3C)c2)ccn1 [Example 366]	6.30 to 7.00

Okay, next one:
### Prompt Dear colleague, please send me the reported pIC50 for Cc1ccc(NC(=O)c2ccnc(C(C)(C)C#N)c2)cc1-c1cccc(-c2cc(NC(=O)C(C)(C)C)ncn2)c1 [Example 210] when you can.
### Response 6.00 to 6.30

---

Parameter: IC50. Scope: all listed entries.
molecular target: A-Raf kinase (SEQ. ID No: 1) (Homo sapiens (Human), UniProt P10398, Y301D/Y302D); experiment: Biochemical Assay for A-Raf (1); conditions: Table J, assay version (1); read-out: ARAF (1) IC50
Sequence (P10398 other isoform, or with tags, fused parts or gaps Y301D (already in the parent)/Y302D (already in the parent)): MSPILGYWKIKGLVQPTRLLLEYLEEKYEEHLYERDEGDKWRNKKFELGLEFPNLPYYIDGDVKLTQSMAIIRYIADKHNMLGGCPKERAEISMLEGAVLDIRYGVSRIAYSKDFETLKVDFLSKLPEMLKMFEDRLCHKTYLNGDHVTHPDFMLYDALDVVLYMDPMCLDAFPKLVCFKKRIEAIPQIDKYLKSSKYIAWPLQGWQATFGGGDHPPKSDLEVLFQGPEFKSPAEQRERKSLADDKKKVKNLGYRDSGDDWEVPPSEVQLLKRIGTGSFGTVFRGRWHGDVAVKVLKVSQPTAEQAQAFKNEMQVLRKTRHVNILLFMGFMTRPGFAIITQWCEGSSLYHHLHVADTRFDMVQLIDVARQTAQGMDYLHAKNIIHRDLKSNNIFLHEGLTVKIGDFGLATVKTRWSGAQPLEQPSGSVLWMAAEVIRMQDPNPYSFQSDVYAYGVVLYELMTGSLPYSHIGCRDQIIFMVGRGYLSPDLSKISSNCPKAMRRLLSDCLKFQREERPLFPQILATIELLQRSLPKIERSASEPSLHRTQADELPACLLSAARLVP

Some solved entries appear below for comparison.
Cc1ccc(NC(=O)c2ccnc(C(F)(F)F)c2)cc1-c1cc(-c2ccnc(N)c2)n(C)c(=O)c1	1000 to 10000 nM
Cc1ccc(NC(=O)c2ccnc(C3CC3)c2)cc1-c1cncc(-c2ccnc(NC(=O)C3CC3)c2)n1	100 to 500 nM
CNC(=O)c1cc(-c2cnnc(-c3cc(NC(=O)c4ccnc(C(F)F)c4)cnc3C)c2)ccn1	1000 to 10000 nM

### Prompt Item CC(=O)Nc1cc(-c2nccc(-c3cc(NC(=O)c4ccnc(C5(C#N)CC5)c4)ccc3C)n2)ccn1 : provide IC50
### Response 100 to 500 nM

### Prompt For the molecule Cc1ncc(NC(=O)c2ccnc(C3CC3)c2)cc1-c1cccc(-c2cc(NC(=O)C3CC3)ncn2)c1 , give its measured IC50 value.
### Response 1000 to 10000 nM

### Prompt Give IC50 for COC(=O)Nc1cc(-c2cnnc(-c3cc(NC(=O)c4ccnc(C5CC5)c4)cnc3C)c2)ccn1
### Response 1000 to 10000 nM

### Prompt Please list IC50 recorded for the molecule CNC(=O)c1cc(-c2cnnc(-c3cc(NC(=O)c4cn(C(C)(C)C)nn4)ccc3C)c2)ccn1
### Response 1000 to 10000 nM

---

# Lookup of reported IC50 keyed by entry
molecular target: B-Raf (V600E) (SEQ. ID NO: 4) kinase (Homo sapiens (Human), UniProt P15056, V600E); experiment: Biochemical Assay for B-Raf (V600E) (1); settings: Table J, BRAF V600E, biochemical assay (1); read-out: BRAF VE (1)
Sequence (P15056 416-766 V600E): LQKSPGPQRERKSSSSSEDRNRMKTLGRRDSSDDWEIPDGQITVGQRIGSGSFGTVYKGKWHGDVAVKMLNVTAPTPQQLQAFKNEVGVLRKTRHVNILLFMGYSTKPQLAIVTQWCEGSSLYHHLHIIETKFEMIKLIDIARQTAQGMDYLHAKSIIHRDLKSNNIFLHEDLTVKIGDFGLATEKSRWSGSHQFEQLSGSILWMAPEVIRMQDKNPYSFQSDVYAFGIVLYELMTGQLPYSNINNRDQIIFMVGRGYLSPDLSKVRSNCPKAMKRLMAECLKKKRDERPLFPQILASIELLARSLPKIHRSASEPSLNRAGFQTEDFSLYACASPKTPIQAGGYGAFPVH

Completed entries (count: 3):
CNC(=O)c1cc(-c2ccnc(-c3cc(NC(=O)CCC4(F)CC4)ccc3C)c2)ccn1	1000 to 10000 nM
Cc1ncc(NC(=O)c2ccnc(C(C)(C)C#N)c2)cc1-c1cccc(-c2ncnn3cccc23)c1	≤ 100 nM
Cc1ccc(NC(=O)c2ccnc(C(C)C)c2)cc1-c1cncc(-c2cc(NC(=O)C3CC3)ncn2)c1	≤ 100 nM

Here is another compound to look at.
### Prompt Report its IC50 with B-Raf (V600E) (SEQ. ID NO: 4) kinase (Homo sapiens (Human), UniProt P15056, V600E) as the test system: COC(=O)Nc1cc(-c2cnnc(-c3cc(NC(=O)c4ccnc(C(C)(C)C#N)c4)ccc3F)c2)ccn1
### Response 100 to 500 nM

---

target: B-Raf (V600E) (SEQ. ID NO: 4) kinase (Homo sapiens (Human), UniProt P15056, V600E); assay: Biochemical Assay for B-Raf (V600E) (2); details: Table J, BRAF V600E, biochemical assay (2); read-out: BRAF VE (2)
Catalogue of compounds with associated IC50

These recorded examples may help you get a feel for the data.
Cc1ccc(NC(=O)c2ccnc(C(C)(C)F)c2)cc1-c1cc(-c2ccnc(C(N)=O)c2)ncn1	≤ 100 nM
CNC(=O)c1cc(-c2cc(-c3cc(NC(=O)c4ccnc(C(C)(C)F)c4)ccc3C)c(F)cn2)ccn1	≤ 100 nM
Cc1ccc(NC(=O)c2cn(C)nc2C(F)(F)F)cc1-c1cncc(-c2ccnc(NC(=O)C3CC3)c2)c1	≤ 100 nM
Cc1ccc(NC(=O)c2ccnc(C3(C#N)CC3)c2)cc1-c1ccnc(-c2ccnc(NC(=O)C3CC3)c2)c1	≤ 100 nM
CNC(=O)c1cc(-c2cc(-c3cc(NC(=O)c4ccnc(C(C)(C)F)c4)ccc3Cl)ccn2)ccn1	≤ 100 nM

### Prompt Item CNC(=O)c1cc(-c2cc(-c3cc(NC(=O)c4ccnc(C(C)(C)F)c4)c(F)cc3F)ccn2)ccn1 : provide IC50
### Response ≤ 100 nM

### Prompt Given the compound Cc1ccc(NC(=O)c2ccnc(C(C)(C)F)c2)cc1-c1ccnc(-c2ccnc(C(=O)NC3CN(C)C3)c2)c1 , write its reported IC50.
### Response ≤ 100 nM

### Prompt Recall and state the measured IC50 for CNC(=O)c1cc(-c2cncc(-c3cc(NC(=O)c4ccnc(C(C)(F)F)c4)ccc3C)c2)ncn1 .
### Response ≤ 100 nM

### Prompt // Input: CNC(=O)c1cc(-c2cc(-c3cc(NC(=O)c4ccnc(C(C)(C)F)c4)ccn3)ccn2)ccn1 . Output its IC50 only.
### Response 1000 to 10000 nM

---

target: B-Raf (V600E) (SEQ. ID NO: 4) kinase (Homo sapiens (Human), UniProt P15056, V600E); assay: Biochemical Assay for B-Raf (V600E) (1); conditions: Table J, BRAF V600E, assay version (1); read-out: BRAF VE (1) IC50
QUANTITY_MEASURED: IC50

The cases that follow already have their IC50 on record.
COC(=O)Nc1cc(-c2cnnc(-c3cc(NC(=O)c4ccnc(C(C)(C)C#N)c4)cnc3C)c2)ccn1 [Example 306]	100 to 500 nM
CNC(=O)c1cc(-c2cc(-c3cc(NC(=O)c4ccnc(C(C)(C)C#N)c4)ccc3C)ccn2)ccn1 [Example 50]	≤ 100 nM
Cc1ccc(NC(=O)c2ccnc(C(F)F)c2)cc1-c1cncc(-c2ccnc(NC(=O)C3CC3)c2)n1 [Example 117]	≤ 100 nM

### Prompt Respond only with IC50 recorded for CC(=O)Nc1cc(-c2nccc(-c3cc(NC(=O)c4cc(C(F)(F)F)ccn4)ccc3C)n2)ccn1 [Example 153]
### Response ≤ 100 nM

### Prompt Fill in reported IC50 for this entry: CNC(=O)c1cc(-c2cc(-c3cc(NC(=O)c4ccnc(C(F)(F)F)c4)ccc3C)nn(C)c2=O)ccn1 [Example 51]
### Response 1000 to 10000 nM

### Prompt Please supply the value of reported IC50 for the item Cc1ncc(NC(=O)C2CCOC(C)(C)C2)cc1-c1cccc(-c2cc(NC(=O)C3CC3)ncn2)c1 (stereo not shown) [Example 348]
### Response ≤ 100 nM

### Prompt Could you please provide reported IC50 for Cc1ncc(NC(=O)C2CCC3(CC2)COC3)cc1-c1nccc(-c2ccnc(NC(=O)C3CC3)c2)n1 [Example 338] ? Thanks!
### Response 500 to 1000 nM

---

molecular target: A-Raf kinase (SEQ. ID No: 1) (Homo sapiens (Human), UniProt P10398, Y301D/Y302D); assay: Biochemical Assay for A-Raf (1); settings: Table J, assay version (1); read-out: ARAF (1) IC50
pIC50: −log10 of the molar value.
Below is a list of entries, each paired with its recorded pIC50 value.

Worked cases, pIC50 given:
Cc1ncc(NC(=O)c2ccnc(C(C)(C)C#N)c2)cc1-c1cccc(-c2ccnc(NC(=O)C3CC3)c2)c1 [Example 222]	6.00 to 6.30
Cc1ccc(NC(=O)c2cc(CN(C)C)cc(C(F)(F)F)c2)cc1-c1cncc(-c2ccnc(NC(=O)C3CC3)c2)n1 [Example 185]	6.30 to 7.00
Cc1ccc(NC(=O)c2ccnc(C3(C#N)CC3)c2)cc1-c1cncc(-c2ccnc(NC(=O)C3CC3)c2)n1 [Example 183]	6.30 to 7.00
Cc1ccc(NC(=O)c2ccnc(C(C)(C)C#N)c2)cc1-c1cccc(-c2cc(NC(=O)C3CC3)ncn2)c1 [Example 77]	5.00 to 6.00

### Prompt Read off the recorded pIC50 for Cc1ccc(NC(=O)c2cccc(C(C)(C)C#N)c2)cc1-c1cncc(-c2ccnc(C(=O)NC3CC3)c2)n1 [Example 149]
### Response 5.00 to 6.00

### Prompt Fill in pIC50 for record CC(=O)Nc1cc(-c2cccc(-c3cc(NC(=O)c4ccnc(C(F)(F)F)c4)cnc3C)c2)ccn1 [Example 64]
### Response 5.00 to 6.00

### Prompt Given the molecule Cc1ccc(NC(=O)c2ccnc(C(F)(F)F)c2)cc1-c1cncc(-c2ccnc(NC(=O)CC#N)c2)n1 [Example 98] , write its reported pIC50.
### Response 6.30 to 7.00
